- System: Klebsiella pneumoniae ATCC 10031
- experimentNotes: Antibacterial activity, agar dilution method (MIC)
- Assay type: cell-based
- settings: Klebsiella pneumoniae, ATCC10031, pH 7, read-out: MIC (minimum growth inhibitory concentration)
Could you please mark True for values of MIC below 2 µg/mL and False for values at or above it?

molecule: C/C1=C\C(OC2CCCCO2)C(=O)/C=C/C=C\c2csc(n2)C(C)N2C(=O)CC(C(C)(O)C(=O)SCc3oc(=O)oc3C)(CC1)[S+]2[O-] (single isomer, unassigned)
discreteLabel: False

molecule: C/C1=C\C(OC(=O)c2cnc3ccccc3n2)C(=O)/C=C/C=C\c2csc(n2)C(C)N2C(=O)CC(C(C)(O)C(=O)SCc3oc(=O)oc3C)(CC1)[S+]2[O-] (stereo not shown)
discreteLabel: False

molecule: CC1=CC(OC(=O)c2ccccn2)C(=O)C=CC=Cc2csc(n2)C(C)N2C(=O)CC(C(C)(O)C(=O)SCc3oc(=O)oc3C)(CC1)[S+]2[O-] (stereo not shown)
discreteLabel: True

molecule: C/C1=C\C(OC2CCCCO2)C(=O)/C=C/C=C\c2csc(n2)C(C)NC(=O)CC2(CC1)[S+]([O-])SC(=O)C2(C)O (stereo not shown)
discreteLabel: False

molecule: CC1=CC(OC(=O)CNC(=O)CN(C)C(=O)OCc2ccccc2)C(=O)C=CC=Cc2csc(n2)C(C)N2C(=O)CC(C(C)(O)C(=O)SCc3oc(=O)oc3C)(CC1)[S+]2[O-] (stereo not shown)
discreteLabel: True

molecule: CC(=O)NCC(=O)OC1/C=C(\C)CCC2(CC(=O)NC(C)c3nc(cs3)/C=C\C=C\C1=O)[S+]([O-])SC(=O)C2(C)O (stereo not shown)
discreteLabel: True

molecule: C/C1=C\C(O)C(=O)/C=C/C=C\c2csc(n2)C(C)N2C(=O)CC(C(C)(O)C(=O)SCOC(=O)C3CCC3)(CC1)[S+]2[O-] (stereo not shown)
discreteLabel: False

###

- Test system: Bacillus subtilis No. 10707
- experimentNotes: Antibacterial activity, agar dilution method (MIC)
- Format: cell-based
- settings: BS: Bacillus subtilis No. 10707, pH 7, read-out: MIC (minimum growth inhibitory concentration)

compound: C/C1=C\C(OC(=O)CNC=O)C(=O)/C=C/C=C\c2csc(n2)C(C)NC(=O)CC2(CC1)[S+]([O-])SC(=O)C2(C)O (stereo not drawn)
MIC [µg/mL]: 0.041
--
compound: C/C1=C\C(OC(=O)CN(C)C(=O)CCNC(=O)OCc2ccccc2)C(=O)/C=C/C=C\c2csc(n2)C(C)NC(=O)CC2(CC1)[S+]([O-])SC(=O)C2(C)O (stereo not drawn)
MIC [µg/mL]: 0.13
--
compound: CCOCOC1/C=C(\C)CCC2(C(C)(O)C(=O)SCc3oc(=O)oc3C)CC(=O)N(C(C)c3nc(cs3)/C=C\C=C\C1=O)[S+]2[O-] (stereo not drawn)
MIC [µg/mL]: 0.65
--
compound: COC1(OC2C=C(C)CCC3(C(C)(O)C(=O)SCc4oc(=O)oc4C)CC(=O)N(C(C)c4nc(cs4)C=CC=CC2=O)[S+]3[O-])CCSCC1 (stereo not drawn)
MIC [µg/mL]: 0.041
--
compound: COCOC1/C=C(\C)CCC2(CC(=O)NC(C)c3nc(cs3)/C=C\C=C\C1=O)[S+]([O-])SC(=O)C2(C)O (stereo not drawn)
MIC [µg/mL]: 0.033
--
compound: C/C1=C\C(OC(=O)OCC2c3ccccc3-c3ccccc32)C(=O)/C=C/C=C\c2csc(n2)C(C)NC(=O)CC2(CC1)[S+]([O-])SC(=O)C2(C)O (stereo not drawn)
MIC [µg/mL]: 0.041
--
compound: C/C1=C\C(OC(=O)c2ccc(F)cc2)C(=O)/C=C/C=C\c2csc(n2)C(C)NC(=O)CC2(CC1)[S+]([O-])SC(=O)C2(C)O (stereo not drawn)
MIC [µg/mL]: 0.02
--
compound: COCOC1/C=C(\C)CCC2(C(C)(O)C(=O)SCc3oc(=O)oc3C)CC(=O)N(C(C)c3nc(cs3)/C=C\C=C\C1=O)[S+]2[O-] (stereo not drawn)
MIC [µg/mL]: 0.72
--
compound: CC1=CC(OC(=O)CNC(=O)CCNC(=O)OC(C)(C)C)C(=O)C=CC=Cc2csc(n2)C(C)N2C(=O)CC(C(C)(O)C(=O)SCc3oc(=O)oc3C)(CC1)[S+]2[O-] (stereo not drawn)
MIC [µg/mL]: 2.3
--
compound: CC(=O)OC1/C=C(\C)CCC2(CC(=O)NC(C)c3nc(cs3)/C=C\C=C\C1=O)[S+]([O-])SC(=O)C2(C)O (stereo not drawn)
MIC [µg/mL]: 0.26
--
compound: C/C1=C\C(OC(=O)CNC(=O)CNC(=O)c2ccccc2)C(=O)/C=C/C=C\c2csc(n2)C(C)NC(=O)CC2(CC1)[S+]([O-])SC(=O)C2(C)O (stereo not drawn)
MIC [µg/mL]: 0.35
--
compound: C/C1=C\C(OC(=O)CCCNC(=O)OCc2ccccc2)C(=O)/C=C/C=C\c2csc(n2)C(C)NC(=O)CC2(CC1)[S+]([O-])SC(=O)C2(C)O (stereo not drawn)
MIC [µg/mL]: 0.041

FYI, the data here is from patent US5733924A.
